assay: Clinical pharmacokinetics: plasma CYH33 and I27 by LC/MS/MS; format: in vivo, human; conditions: C1D28, 1 mg, 0.5 h
attribute measured: CYH33 plasma concentration, mean (ng/mL)
Numbers only, in ng/mL.

Data point: COC(=O)Nc1cc(C(F)(F)F)c(-c2nc(N3CCOCC3)c3cc(CN4CCN(S(C)(=O)=O)CC4)cn3n2)cn1 ; CYH33 plasma concentration, mean = 2.38

###

test: Clinical pharmacokinetics: plasma CYH33 and I27 by LC/MS/MS; assay type: in vivo, human; details: C1D28, 60 mg, 24 h
attribute measured: CYH33 plasma concentration, mean (ng/mL)
Give bare numbers, in ng/mL.

Short answer for COC(=O)Nc1cc(C(F)(F)F)c(-c2nc(N3CCOCC3)c3cc(CN4CCN(S(C)(=O)=O)CC4)cn3n2)cn1 : CYH33 plasma concentration, mean was 135
